Form field: ERYTHROCYTE COUNT (one value per entry).
Species: Rattus norvegicus
method summary: DrugMatrix - Regimen: Daily Repeat
Format: toxicity, organism-based, Sprague-Dawley
Parameters: regimen Daily Repeat, gender Male, age 6-8 weeks
stated conditions: in vivo, po, 0 mg/kg, 72 h, tissue Blood, route oral GAVAGE, dose level Control, time 3 day, vehicle 100 % WATER
Give the value in x10E6/uL but do not write x10E6/uL after it.

Solved entries:
# molecule, unit symbol, ERYTHROCYTE COUNT
data = [
    ("CCN(CC)CCNC(=O)c1ccc(N)cc1 [PROCAINAMIDE]", "x10E6/uL", 5.88),
    ("CN(C)CCC=C1c2ccccc2CCc2ccccc21 [AMITRIPTYLINE]", "x10E6/uL", 5.52),
    ("NC(=O)c1cccnc1 [NIACINAMIDE]", "x10E6/uL", 5.17),
    ("CCN(CC)CCOC(=O)C1(C2CCCCC2)CCCCC1 [DICYCLOMINE]", "x10E6/uL", 5.8),
    ("C#Cc1cccc(Nc2ncnc3cc(OCCOC)c(OCCOC)cc23)c1 [ERLOTINIB]", "x10E6/uL", 6.09),
]

Pending molecule:
Input: Please give the documented ERYTHROCYTE COUNT of NC12CC3CC(CC(C3)C1)C2 [AMANTADINE]
Output: 5.52

====

Item-by-item account of LACTATE DEHYDROGENASE
Species on record: Rattus norvegicus
method summary: DrugMatrix - Regimen: Daily Repeat
Type: toxicity, organism-based, Sprague-Dawley
Parameters: regimen Daily Repeat, gender Male, age 6-8 weeks
stated conditions: in vivo, po, 0 mg/kg, 120 h, tissue Plasma, route oral GAVAGE, dose level Control, time 5 day, vehicle 100 % WATER
Value and unit, in that order.

# compound, LACTATE DEHYDROGENASE
data = [
    ("NC12CC3CC(CC(C3)C1)C2 [AMANTADINE]", "212.67 u/L"),
    ("CN(C)CCC=C1c2ccccc2CCc2ccccc21 [AMITRIPTYLINE]", "212.67 u/L"),
    ("CN(C)C(=O)Oc1cccc([N+](C)(C)C)c1.[Br-] [NEOSTIGMINE BROMIDE]", "146.17 u/L"),
    ("O=c1[nH]c(=O)n(C2CCCO2)cc1F (centres undefined) [TEGAFUR]", "487.5 u/L"),
    ("CCCC(C)C1(CC)C(=O)NC(=O)NC1=O (centres undefined) [PENTOBARBITAL]", "146.17 u/L"),
    ("C#Cc1cccc(Nc2ncnc3cc(OCCOC)c(OCCOC)cc23)c1 [ERLOTINIB]", "519.67 u/L"),
    ("CCN(C(C)=O)c1cccc(-c2ccnc3c(C#N)cnn23)c1 [ZALEPLON]", "212.67 u/L"),
    ("CNC1=Nc2ccc(Cl)cc2C(c2ccccc2)=[N+]([O-])C1 [CHLORDIAZEPOXIDE]", "189.33 u/L"),
]

Consider now this further compound.
Input: Tell us which LACTATE DEHYDROGENASE value is on record for NC(=O)c1cccnc1 [NIACINAMIDE]
Output: 191.17 u/L

====

Organism: Rattus norvegicus
method summary: DrugMatrix - Regimen: Daily Repeat
Format: toxicity, organism-based, Sprague-Dawley
Design: regimen Daily Repeat, gender Male, age 6-8 weeks
stated conditions: in vivo, po, 0 mg/kg, 72 h, tissue Plasma, route oral GAVAGE, dose level Control, time 3 day, vehicle 100 % WATER
Listing of recorded BLOOD UREA NITROGEN by entry.
Express your answer in mg/dL, writing the number without its unit.

# compound, value
data = [
    ("O=c1[nH]c(=O)n(C2CCCO2)cc1F (stereo unspecified)", 15.5),
]

Now look at this one.
Input: Read off the recorded BLOOD UREA NITROGEN for C#Cc1cccc(Nc2ncnc3cc(OCCOC)c(OCCOC)cc23)c1
Output: 16.33
